- MEASURED_TARGET: T1, monomeric recombinant cynomologus monkey Notch3 extracellular domain (containing EGF like domains 1-12) … (cynomologus monkey)
- T1 construct: domain: EGF like domains 1-12; also called monomeric rcNotch3
- EXPERIMENT_NOTES: SPR BIAcore T100, antibody captured by anti-human IgG Fc, monomeric rcNotch3 analyte, 37 C
QUANTITY: pKd
One number for each entry, as −log10 of the molar value.

INSERT INTO results (binder, quantity, reading) VALUES
  ('Hu4F11-75 (antibody, human IgG1, kappa, V domains shown, Humanized, human IgG1 kappa; Hv3-23 A28T T62S heavy + Kv2D-29 N28Y kappa) VH: EVQLLESGGGLVQPGGSLRLSCAASGFTFSSYDMSWVRQAPGKGLEWVSYISRGGGSTYYPDSVKGRFTISRDNSKNTLYLQMNSLRAEDTAVYYCGRHATTAYWYFDVWGQGTMVTVSS VL: DVVMTQTPLSLSVTPGQPASISCRSSQSLVHTYGNTYLHWYLQKPGQSPQLLIYKVSNRFSGVPDRFSGSGSGTDFTLKISRVEAEDVGVYFCSQSTHVPWTFGQGTKVEIKR', 'pKd', 7.62);

// below: pKd requested for another binder
[in] I'd like to know its pKd. The binder in question is Hu4F11-69 (antibody, human IgG1, kappa, V domains shown, Humanized, human IgG1 kappa; Hv3-23 A28T S31N T62S heavy + Kv2D-29 N28H kappa) VH: EVQLLESGGGLVQPGGSLRLSCAASGFTFSNYDMSWVRQAPGKGLEWVSYISRGGGSTYYPDSVKGRFTISRDNSKNTLYLQMNSLRAEDTAVYYCGRHATTAYWYFDVWGQGTMVTVSS VL: DVVMTQTPLSLSVTPGQPASISCRSSQSLVHTHGNTYLHWYLQKPGQSPQLLIYKVSNRFSGVPDRFSGSGSGTDFTLKISRVEAEDVGVYFCSQSTHVPWTFGQGTKVEIKR
[out] 7.96
